Catalogue of selectivity ratio readings, one per entry.
test: Selectivity index, ratio of IC50 for rat L6 cells to IC50 for Plasmodium falciparum K1; type: toxicity, cell-based; settings: read-out: Ratio IC50
Readout Type: selectivity ratio

[[record]]
molecule = "CN(C)C12CCN(C(=O)CCN3CCCCC3)C(C(c3ccccc3)C1)C(c1ccccc1)C2 (racemic)"
readout_type = "selectivity ratio"
recorded_value = 120

[[record]]
molecule = "CCN1CCN(CCN2CCC3(N4CCCCC4)CC(c4ccccc4)C2C(c2ccccc2)C3)CC1 (racemic)"
readout_type = "selectivity ratio"
recorded_value = 482

[[record]]
molecule = "CN(C)C12CCN(CCCN3CCCCC3)C(C(c3ccccc3)C1)C(c1ccccc1)C2 (racemic)"
readout_type = "selectivity ratio"
recorded_value = 162

